- Test system: NCI-H23 lung
- TEST SUMMARY: NCI-60 one-dose screen, 48 h (100 = growth as untreated, 0 = no growth, -100 = all killed)
- STUDY CONDITIONS: 10 µM
This is part of a sample that, as a whole, favours compounds with a hit. Of some 83,000 tested, about 20% had one in any assay.
MEASURED ATTRIBUTE: growth (%)
// note: answer is a bare numeric in %

> print(dat)
                                   compound  number
1  O=C1/C(=C\c2ccc(F)cc2)CN(C(=O)c2ccccc2F)C/C1=C\c1ccc(F)cc1    16.4
2  CC1(C)OC2=C(CC1Br)C(=O)C(=O)c1ccccc12 (stereo not given)   -64.3
3  O=C1OCC2=C1C(c1cccc(Cl)c1)c1cc3c(cc1N2CCO)OCO3 (stereo not given)    31.7
4  COc1ccc(-c2cc(/C=C/C(=O)c3cc(OC)c(OC)c(OC)c3)[nH]n2)cc1OC    47.2
5  N#CCCN1C/C(=C/c2ccccc2)C(=O)/C(=C/c2ccccc2)C1    78.9
6  COc1ccc2c(c1)N(CCO)C1=C(C(=O)OC1)C2c1cc(OC)c(OC)c(OC)c1 (stereo not given)    17.4
7  O=C1/C(=C\c2ccc(Cl)cc2)CN(C(=O)c2ccccc2)C/C1=C\c1ccc(Cl)cc1    58.2
8  COc1ccc(Cn2c(C(N)=O)cc3c2-c2nc(N)ncc2CCC3)cc1     106
9  c1ccc(CSc2nnc3c4c5c(sc4nc(-c4cccnc4)n23)CCCCCC5)cc1    54.7

As a next step, examine the compound that follows.
growth measured on CC(C)(C#N)Nc1ccccc1 = 108
